Assay: S. cerevisiae growth modulation with rapamycin, primary screen, strain BY4716, OD600, 96 h (AID 1091); further: test concentration not given here
Conditions: higher = more signal, called active from +8 up or from −8 down
Please enter y where z-score is greater than or equal to -0.1, and n where it is lower.

Below are worked cases with known answers.
IN: Please check the record "CCCC[C@H]1OB(O)C[C@H]2C1=C(COC)C[C@H]1C(=O)N(Cc3ccccc3)C(=O)[C@H]12" and state if its z-score is at or above -0.1.
OUT: n

IN: Can "CO[C@@H]1COC(=O)[C@H](C)NC(=O)CC=C[C@@H](C)[C@H](NS(=O)(=O)c2ccc(C)cc2)COC(=O)CC=C[C@@H]1C" be said to have z-score at or above -0.1?
OUT: y

IN: Identify whether the reported z-score of the following compound is -0.1 or greater: "CO[C@H]1COC(=O)[C@@H](OCc2ccccc2)C=C[C@H](C)[C@@H](OC)COC(=O)[C@H](OCc2ccccc2)C=C[C@@H]1C"
OUT: n

IN: Textbook exercise: given the entry CC(c1ccccc1)C(O)C1C=CC2C(=O)N(C)C(=O)C2N1N(c1ccccc1)c1ccccc1 (stereo not drawn) , state whether its z-score is greater than or equal to -0.1.
OUT: y

IN: Quick check: does "Cc1ccc(S[C@]2(C(=O)NCCCN(C)C)CC(=O)N(C3CCCCC3)[C@@H]2c2ccc(CO)cc2I)cc1" have z-score greater than or equal to -0.1?
OUT: n

IN: Is z-score for "CC(C)NC(=O)[C@@]1(Cc2ccccc2I)c2ccccc2C(=O)N(C2CCCCC2)[C@H]1c1ccc(CO)cc1" at or above -0.1?
OUT: n

Continuing:
IN: Dear colleague, could you confirm whether "O=C1O[C@@H](c2ccccc2)[C@@H](c2ccccc2)N2[C@@H](c3ccc(OCCO)cc3)[C@]3(C(=O)Nc4ccc(C#CCCO)cc43)[C@@H](C(=O)N3CCN(c4ncccn4)CC3)[C@H]12" has z-score at or above -0.1?
OUT: y
